molecular target: Syntenin-1/Syndecan-2 (Homo sapiens, UniProt O00560); assay: Inhibition of recombinant human full-length GST-tagged syntenin-1/Syndecan-2 complex interaction expressed in Escherichia coli ER2566 measured after 16 hrs by HTRF assay
Sequence (O00560 whole entry): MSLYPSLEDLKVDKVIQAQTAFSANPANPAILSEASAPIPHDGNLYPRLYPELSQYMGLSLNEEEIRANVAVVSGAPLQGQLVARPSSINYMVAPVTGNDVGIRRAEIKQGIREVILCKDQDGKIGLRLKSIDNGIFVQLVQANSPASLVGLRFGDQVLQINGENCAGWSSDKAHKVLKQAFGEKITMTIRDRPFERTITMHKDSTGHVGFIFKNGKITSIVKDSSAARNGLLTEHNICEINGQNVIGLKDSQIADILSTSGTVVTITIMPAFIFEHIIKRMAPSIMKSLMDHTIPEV
Sequence (P34741 whole entry, further chain): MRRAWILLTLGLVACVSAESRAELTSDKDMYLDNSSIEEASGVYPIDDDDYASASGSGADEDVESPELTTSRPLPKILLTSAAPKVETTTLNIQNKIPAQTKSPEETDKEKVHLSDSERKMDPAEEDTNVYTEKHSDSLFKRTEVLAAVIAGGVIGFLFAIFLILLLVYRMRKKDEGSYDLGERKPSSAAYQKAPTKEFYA
pIC50: −log10 of the molar value.
Reported pIC50 values for a set of molecules
PROPERTY LABEL: pIC50

smiles_repr=CC(=O)Nc1ccc(-c2ccc(SCCC(=O)N[C@H](C(=O)O)C(C)C)cc2)cn1 limit_operator== observed=3.75
smiles_repr=CC(C)[C@H](NC(=O)CCSc1ccc(-c2ccc(CCC(=O)O)cc2)cc1)C(=O)O limit_operator=< observed=3.70
smiles_repr=CC(C)[C@H](NC(=O)CCSc1ccc(Br)cc1)C(=O)O limit_operator== observed=4.33
smiles_repr=CC(C)[C@H](NC(=O)CCSc1ccc(-c2cccc(CO)c2)cc1)C(=O)O limit_operator== observed=4.02
smiles_repr=CC(C)[C@H](NC(=O)CCSc1ccc(-c2ccc(S(=O)(=O)N3CCCCC3)cc2)cc1)C(=O)O limit_operator=< observed=3.70

###

molecular target: Syntenin-1/Syndecan-2 (Homo sapiens); assay: Inhibition of recombinant human full-length GST-tagged syntenin-1/Syndecan-2 complex interaction expressed in Escherichia coli ER2566 measured after 16 hrs by HTRF assay
pIC50: −log10 of the molar value.
PROPERTY LABEL: pIC50

smiles_repr=CC(C)[C@H](NC(=O)CCSc1ccc(-c2cccc(O)c2)cc1)C(=O)O limit_operator=< observed=3.70
smiles_repr=COCCOc1ccc(-c2ccc(SCCC(=O)N[C@H](C(=O)O)C(C)C)cc2)cn1 limit_operator== observed=3.95
smiles_repr=CC(C)[C@H](NC(=O)CCSc1ccc(-c2ccc(CNC(=O)OC(C)(C)C)cc2)cc1)C(=O)O limit_operator== observed=4.16
smiles_repr=CC(C)[C@H](NC(=O)CCSc1ccc(Cl)cc1)C(=O)O limit_operator== observed=4.48
smiles_repr=CC(C)[C@H](NC(=O)CCSc1ccc(-c2cccc(S(N)(=O)=O)c2)cc1)C(=O)O limit_operator== observed=4.11
smiles_repr=CC(C)[C@H](NC(=O)CCSc1ccc(-c2ccc(OS(C)(=O)=O)cc2)cc1)C(=O)O limit_operator== observed=5.13

###

target: Syntenin-1/Syndecan-2 (Homo sapiens) (UniProt O00560+P34741); assay: Inhibition of recombinant human full-length GST-tagged syntenin-1/Syndecan-2 complex interaction expressed in Escherichia coli ER2566 at 400 uM measured after 16 hrs by HTRF assay
PROPERTY LABEL: inhibition (%)

smiles_repr=O=C(CCSc1ccc(Cl)cc1)N[C@@H](Cc1ccccc1)C(=O)O property_label=inhibition observed=0
smiles_repr=O=C(CCOc1ccccc1)N[C@@H](Cc1ccccc1)C(=O)O property_label=inhibition observed=0
smiles_repr=C[C@H](NC(=O)CCOc1ccccc1)C(=O)O property_label=inhibition observed=11

meta.source: ChEMBL document CHEMBL4831487
